Data provenance: the supplement of paper PMC9732359

# PROCEDURE_SUMMARY: protein stability index of a GFP-peptide fusion (yeast GPS) (PSI 1-4); higher = more stable; sorted into four equal gates, so the index is relative within each strain
# CONDITION_DESCRIPTION: doa10∆
# cutoff 3 applies to protein stability index; >= gives Met, < gives Not met

{"columns": ["QUERY_SEQUENCE", "CATEGORY"],
 "data": [
  ["FKAIHGSQLRLSEWEEY [YCS4]", "Not met"],
  ["PALESSPVTGDNSPSED [SNF2]", "Met"],
  ["LHKRQQFSESTHNDIDS [YJL039C/NUP192]", "Not met"],
  ["DFKAKYCDSMGRPQRKM [RPB5]", "Met"],
  ["SAARGLSLVYEIGGSDL [ECM29]", "Not met"],
  ["NSYQPSPFFVLDEVDAA [SMC1]", "Not met"],
  ["LREVVELPLLSPERFAT [RPT1]", "Not met"],
  ["HQQQQQQQQQQQQQQQQ [SNF5]", "Not met"],
  ["NPRRLEIKDGRSLFLRN [YMR153W/NUP53]", "Met"],
  ["LIELLEKLDVSRSSVCV [YCG1]", "Not met"],
  ["SGNNNGGFTNLTSQAPQ [YDL088C/ASM4]", "Met"],
  ["NIPKPLNSYHIKNGRIY [RGR1]", "Not met"],
  ["EVIGYIAAGTYGKVYKA [SSN3]", "Not met"],
  ["LTADYDALDIANRIGYI [RPL25]", "Met"],
  ["FREAIVATEPLLDILVK [PRP8]", "Not met"],
  ["DMDPLAVSAASVVSMSN [SIR2]", "Not met"],
  ["YLLENNQVGTDELILPL [YDL116W/NUP84]", "Met"],
  ["DQDKVNFASGDNNTASN [RPB3]", "Not met"],
  ["GADVTNTTQDNGGDKEL [YCS4]", "Met"],
  ["NLGSRTKNNTQASGITA [SSN3]", "Not met"],
  ["QKDKSDTYKRFKYLLGV [ISW2]", "Not met"],
  ["KMLKIWTMAFRTMDDIK [ECM29]", "Not met"],
  ["HLSKSPADRPQGRRNSR [SIR4]", "Not met"],
  ["GNNPSWVNNPKKRFTPH [YDL088C/ASM4]", "Met"]
]}
